# target.entity: HMalT^336-806 (arm-sensor polypeptide) (Escherichia coli)
# Sequence (P06993 336-806): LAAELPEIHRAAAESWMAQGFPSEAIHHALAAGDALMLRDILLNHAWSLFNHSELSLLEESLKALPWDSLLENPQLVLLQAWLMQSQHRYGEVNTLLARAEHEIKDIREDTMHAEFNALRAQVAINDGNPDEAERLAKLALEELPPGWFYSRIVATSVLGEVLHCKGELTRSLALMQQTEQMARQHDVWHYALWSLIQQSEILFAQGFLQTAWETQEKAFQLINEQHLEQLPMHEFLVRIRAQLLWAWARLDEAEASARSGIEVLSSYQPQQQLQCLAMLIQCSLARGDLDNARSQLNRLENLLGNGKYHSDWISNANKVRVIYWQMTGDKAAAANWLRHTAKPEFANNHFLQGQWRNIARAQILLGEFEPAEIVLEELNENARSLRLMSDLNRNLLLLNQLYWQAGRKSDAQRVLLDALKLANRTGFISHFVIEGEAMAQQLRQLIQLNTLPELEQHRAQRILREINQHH

compound	Kd, nM
OC[C@H]1O[C@H](O[C@H]2[C@H](O)[C@@H](O)[C@@H](O[C@H]3[C@H](O)[C@@H](O)C(O)O[C@@H]3CO)O[C@@H]2CO)[C@H](O)[C@@H](O)[C@@H]1O (stereo partly shown) [maltotriose]	2700
